Values from patent US20240392024A1

# subject.of.test: T1, TNFR2-His (Sino Biological, 10417-H08H, NP_001057.1 Met1-Asp257, with multi-histidine tag expressed on … (human, UniProt P20333 23-257))
# T1 construct: range 1-257; Bought protein; also called recombinant human TNFR2 protein; TNFR2-His antigen; not shown: C-terminal multi-histidine tag
# T1 sequence (looked up): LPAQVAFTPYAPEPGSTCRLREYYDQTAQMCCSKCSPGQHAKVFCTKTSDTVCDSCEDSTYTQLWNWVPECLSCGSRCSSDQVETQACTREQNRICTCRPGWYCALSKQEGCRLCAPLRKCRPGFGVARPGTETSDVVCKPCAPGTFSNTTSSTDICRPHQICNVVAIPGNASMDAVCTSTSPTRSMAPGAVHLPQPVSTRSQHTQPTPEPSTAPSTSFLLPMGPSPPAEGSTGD
# assay.explanation: BLI, antibody captured on AHC probe, TNFR2-His in solution
Please note: criterion met applies when koff is 0.002 s⁻¹ or greater, and criterion not met applies otherwise.

- binder: "33C12huVH2 + huVL1(P07299) (antibody, V domains shown, Humanized 33C12) VH: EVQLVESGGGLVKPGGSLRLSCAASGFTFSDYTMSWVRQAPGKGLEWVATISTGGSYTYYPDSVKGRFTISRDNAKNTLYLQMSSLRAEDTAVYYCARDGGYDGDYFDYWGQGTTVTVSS VL: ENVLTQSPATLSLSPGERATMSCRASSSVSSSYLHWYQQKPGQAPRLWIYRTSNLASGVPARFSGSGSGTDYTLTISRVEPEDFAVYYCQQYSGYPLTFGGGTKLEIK"
  class.assignment: "criterion not met"
- binder: "human-mouse chimeric TNFR2 monoclonal antibody 33C12-hFc (antibody, V domains shown, Mouse V regions of clone 33C12 with human constant regions; also called human-mouse chimeric 33C12 antibody) VH: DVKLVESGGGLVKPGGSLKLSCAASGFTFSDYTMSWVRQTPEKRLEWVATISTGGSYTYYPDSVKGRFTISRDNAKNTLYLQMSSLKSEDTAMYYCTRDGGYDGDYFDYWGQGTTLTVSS VL: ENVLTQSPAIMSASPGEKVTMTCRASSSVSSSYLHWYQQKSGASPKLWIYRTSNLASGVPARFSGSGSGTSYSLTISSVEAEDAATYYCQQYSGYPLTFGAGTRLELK"
  class.assignment: "criterion not met"
- binder: "33C12huVH2 + huVL2(P07301) (antibody, V domains shown, Humanized 33C12) VH: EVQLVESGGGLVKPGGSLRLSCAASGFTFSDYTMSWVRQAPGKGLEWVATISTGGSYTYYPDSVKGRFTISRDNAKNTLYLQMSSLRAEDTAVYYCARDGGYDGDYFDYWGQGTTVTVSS VL: ENVLTQSPATLSLSPGERATLSCRASSSVSSSYLHWYQQKPGQAPRLWIYRTSNLASGVPARFSGSGSGTDFTLTISRLEPEDFAVYYCQQYSGYPLTFGGGTKLEIK"
  class.assignment: "criterion met"
- binder: "33C12huVH1 + huVL1(P07298) (antibody, V domains shown, Humanized 33C12) VH: DVQLVESGGGLVKPGGSLRLSCAASGFTFSDYTMSWVRQAPGKGLEWVATISTGGSYTYYPDSVKGRFTISRDNAKNTLYLQMSSLRAEDTAVYYCTRDGGYDGDYFDYWGQGTTVTVSS VL: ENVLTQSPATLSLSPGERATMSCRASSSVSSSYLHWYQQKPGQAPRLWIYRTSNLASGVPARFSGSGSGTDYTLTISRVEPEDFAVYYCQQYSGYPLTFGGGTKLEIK"
  class.assignment: "criterion not met"
- binder: "33C12huVH2 + huVL3(P07303) (antibody, V domains shown, Humanized 33C12) VH: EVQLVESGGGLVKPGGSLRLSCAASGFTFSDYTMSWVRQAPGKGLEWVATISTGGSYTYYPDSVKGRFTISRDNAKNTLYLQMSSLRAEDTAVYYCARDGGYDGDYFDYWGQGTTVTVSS VL: EIVLTQSPATLSLSPGERATLSCRASSSVSSSYLHWYQQKPGQAPRLLIYRTSNLATGIPDRFSGSGSGTDFTLTISRLEPEDFAVYYCQQYSGYPLTFGGGTKLEIK"
  class.assignment: "criterion not met"
- binder: "33C12huVH3 + huVL2(P07302) (antibody, V domains shown, Humanized 33C12) VH: EVQLVESGGGLVKPGGSLRLSCAASGFTFSDYTMSWVRQAPGKGLEWVATISTGGSYTYYADSVKGRFTISRDNAKNSLYLQMNSLRAEDTAVYYCARDGGYDGDYFDYWGQGTTVTVSS VL: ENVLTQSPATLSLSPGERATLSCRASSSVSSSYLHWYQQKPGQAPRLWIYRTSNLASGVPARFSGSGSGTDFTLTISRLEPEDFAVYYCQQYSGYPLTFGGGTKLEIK"
  class.assignment: "criterion not met"
- binder: "33C12huVH3 + huVL3(P07304) (antibody, V domains shown, Humanized 33C12) VH: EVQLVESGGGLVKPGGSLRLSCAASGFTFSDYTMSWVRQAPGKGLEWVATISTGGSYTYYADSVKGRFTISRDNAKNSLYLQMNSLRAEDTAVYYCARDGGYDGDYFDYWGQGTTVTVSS VL: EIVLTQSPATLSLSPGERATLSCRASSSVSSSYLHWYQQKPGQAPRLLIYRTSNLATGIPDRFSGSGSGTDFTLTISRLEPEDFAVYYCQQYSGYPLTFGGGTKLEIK"
  class.assignment: "criterion met"
- binder: "33C12huVH3 + huVL1(P07300) (antibody, V domains shown, Humanized 33C12) VH: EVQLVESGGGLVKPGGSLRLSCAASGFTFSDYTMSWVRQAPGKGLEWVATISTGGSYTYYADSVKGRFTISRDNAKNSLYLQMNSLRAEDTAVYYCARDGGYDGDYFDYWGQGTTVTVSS VL: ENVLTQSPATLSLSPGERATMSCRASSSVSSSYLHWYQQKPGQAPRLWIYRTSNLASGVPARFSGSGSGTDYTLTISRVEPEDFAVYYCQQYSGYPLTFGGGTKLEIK"
  class.assignment: "criterion met"
